Values compiled from patent US12692233B2.

- system.tested: UniProtKB Q12791
- Sequence (Q12791 1-1178 isoform Q12791-5): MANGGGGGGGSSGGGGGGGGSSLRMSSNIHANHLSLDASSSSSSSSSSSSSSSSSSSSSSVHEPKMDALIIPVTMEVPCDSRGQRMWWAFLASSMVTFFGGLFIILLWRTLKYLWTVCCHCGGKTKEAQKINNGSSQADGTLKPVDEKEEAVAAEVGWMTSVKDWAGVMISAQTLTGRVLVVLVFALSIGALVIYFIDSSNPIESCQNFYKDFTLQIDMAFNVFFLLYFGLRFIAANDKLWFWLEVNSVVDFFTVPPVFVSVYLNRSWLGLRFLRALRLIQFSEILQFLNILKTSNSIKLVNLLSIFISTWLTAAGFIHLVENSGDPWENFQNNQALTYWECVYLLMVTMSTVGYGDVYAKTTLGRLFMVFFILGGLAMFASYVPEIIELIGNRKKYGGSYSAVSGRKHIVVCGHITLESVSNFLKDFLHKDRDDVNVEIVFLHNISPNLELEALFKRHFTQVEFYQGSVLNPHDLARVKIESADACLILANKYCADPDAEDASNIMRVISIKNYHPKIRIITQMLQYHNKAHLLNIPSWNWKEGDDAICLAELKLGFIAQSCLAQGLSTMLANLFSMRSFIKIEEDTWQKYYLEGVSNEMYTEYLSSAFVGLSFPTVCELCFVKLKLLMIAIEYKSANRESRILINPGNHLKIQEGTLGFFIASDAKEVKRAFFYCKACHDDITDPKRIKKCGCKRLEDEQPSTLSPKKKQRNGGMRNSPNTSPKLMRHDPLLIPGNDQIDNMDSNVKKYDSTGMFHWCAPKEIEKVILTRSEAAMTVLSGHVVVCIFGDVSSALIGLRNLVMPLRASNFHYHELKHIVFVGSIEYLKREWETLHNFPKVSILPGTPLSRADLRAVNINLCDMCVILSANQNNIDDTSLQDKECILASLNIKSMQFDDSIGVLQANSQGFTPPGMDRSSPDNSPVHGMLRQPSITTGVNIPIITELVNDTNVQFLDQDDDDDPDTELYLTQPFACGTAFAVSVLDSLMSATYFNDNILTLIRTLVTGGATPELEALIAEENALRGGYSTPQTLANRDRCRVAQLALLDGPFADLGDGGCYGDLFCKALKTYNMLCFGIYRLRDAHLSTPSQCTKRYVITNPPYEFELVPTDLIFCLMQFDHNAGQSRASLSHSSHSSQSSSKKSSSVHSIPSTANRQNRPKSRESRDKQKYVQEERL
- Sequence (Q16558 whole entry partner): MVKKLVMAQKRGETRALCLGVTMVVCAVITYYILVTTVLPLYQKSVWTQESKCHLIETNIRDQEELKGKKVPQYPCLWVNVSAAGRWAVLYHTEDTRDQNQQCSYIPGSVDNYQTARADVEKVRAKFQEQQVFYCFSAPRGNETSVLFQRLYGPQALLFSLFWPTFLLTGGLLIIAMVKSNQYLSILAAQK
- method.notes: Agonistic activity at the human Maxi K channel (BK channel), FLIPR membrane potential in CHO K1 cells
- condition.details: CHO K1 cells stably transfected with KCNMA1 and beta1 (KCNMB1) subunits, membrane potential dye
pEC50: −log10 of the molar value.
test.readout: pEC50

Examples from the recorded data:
O=C(N[C@H]1CCCc2ccccc21)c1cnc(Oc2cccc(Cl)c2Cl)cc1N1CCOCC1; < 4.52
CCOc1cc(Oc2cccc(Cl)c2Cl)ncc1C(=O)N[C@H]1CCCc2ccccc21; < 4.52

Moving on to the next compound.
Enquiry: Query: pEC50; subject: `CCOc1cc(Sc2cccc(Cl)c2Cl)ncc1C(=O)N[C@H]1CCOc2ccccc21`
Return: < 4.52

###

- Tested on: Dirofilaria immitis
- method.notes: In vitro assay Dirofilaria immitis L1 (microfilaria), motility
- Type: cell-based
- condition.details: 72 h, 3 days incubation, reduction in motility vs DMSO
# EC50 listing for each entry below

Examples from the recorded data:
O=C(N[C@H]1CCc2ccccc21)c1cnc(Sc2cccc(Cl)c2Cl)cc1N1CCOCC1; < 10 µM
COc1cc(Oc2cccc(Cl)c2Cl)ncc1C(=O)N[C@H]1CCOc2ccccc21; < 10 µM

Moving on to the next compound.
Enquiry: Query: EC50; subject: `O=C(N[C@@H]1CCOc2ccccc21)c1cnc(Oc2cc(Cl)cc(Cl)c2)cc1N1CCOCC1`
Return: < 10 µM

###

- system.tested: C. elegans Slo-1a (Caenorhabditis elegans, UniProt Q95V25)
- Sequence (Q95V25 whole entry): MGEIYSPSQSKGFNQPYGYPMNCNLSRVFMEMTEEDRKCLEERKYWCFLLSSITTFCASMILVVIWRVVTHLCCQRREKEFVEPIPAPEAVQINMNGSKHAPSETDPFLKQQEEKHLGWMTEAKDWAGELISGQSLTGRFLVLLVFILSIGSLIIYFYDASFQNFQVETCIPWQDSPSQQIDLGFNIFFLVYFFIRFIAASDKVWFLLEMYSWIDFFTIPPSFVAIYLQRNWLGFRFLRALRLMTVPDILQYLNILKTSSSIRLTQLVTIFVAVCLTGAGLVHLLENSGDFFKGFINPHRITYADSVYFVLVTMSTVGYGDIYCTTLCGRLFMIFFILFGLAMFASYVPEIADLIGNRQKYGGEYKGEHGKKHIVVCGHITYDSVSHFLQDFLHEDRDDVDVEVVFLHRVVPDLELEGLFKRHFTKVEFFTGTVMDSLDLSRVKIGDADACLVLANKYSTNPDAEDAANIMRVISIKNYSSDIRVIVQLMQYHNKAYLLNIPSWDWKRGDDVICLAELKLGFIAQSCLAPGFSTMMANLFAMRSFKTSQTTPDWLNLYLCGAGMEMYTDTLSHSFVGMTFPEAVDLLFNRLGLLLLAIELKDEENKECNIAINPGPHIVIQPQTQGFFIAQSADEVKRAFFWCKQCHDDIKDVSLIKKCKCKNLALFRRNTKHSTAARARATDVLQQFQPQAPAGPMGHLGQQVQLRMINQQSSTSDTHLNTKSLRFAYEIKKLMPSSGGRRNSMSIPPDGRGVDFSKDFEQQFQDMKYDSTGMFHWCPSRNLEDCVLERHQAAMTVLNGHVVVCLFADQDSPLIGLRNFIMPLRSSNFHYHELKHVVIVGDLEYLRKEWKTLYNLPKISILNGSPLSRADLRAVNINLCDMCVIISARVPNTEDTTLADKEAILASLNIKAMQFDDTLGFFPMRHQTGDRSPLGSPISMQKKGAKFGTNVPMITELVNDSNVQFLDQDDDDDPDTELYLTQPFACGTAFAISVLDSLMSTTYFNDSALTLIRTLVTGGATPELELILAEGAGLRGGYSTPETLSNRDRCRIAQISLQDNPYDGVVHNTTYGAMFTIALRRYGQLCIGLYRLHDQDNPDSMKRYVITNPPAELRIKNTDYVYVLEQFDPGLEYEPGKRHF
- method.notes: Agonistic activity at C. elegans Slo-1a, FLIPR membrane potential in CHO K1 cells
- condition.details: EC50 agonistic activity at C. elegans Slo-1a, CHO K1 cells stably transfected with slo-1a, membrane potential dye
test.readout: EC50

COc1cc(Sc2cccc(Cl)c2Cl)ncc1C(=O)N[C@H]1CCOc2ccccc21 [Compound 68]; < 10 µM

Enquiry: Item O=C(N[C@H]1CCOc2ccccc21)c1cnc(Sc2cccc(Cl)c2Cl)cc1N1CCOCC1 [Compound 22] with C. elegans Slo-1a (Caenorhabditis elegans, UniProt Q95V25) - EC50?
Return: < 1 µM

Enquiry: Item COc1cc(Sc2cc(Cl)cc(Cl)c2)ncc1C(=O)N[C@H]1CCOc2ccccc21 [Compound 83] with C. elegans Slo-1a (Caenorhabditis elegans, UniProt Q95V25) - EC50?
Return: < 10 µM

Enquiry: Item O=C(N[C@H]1CCc2ccccc21)c1cnc(Nc2cc(Cl)cc(Cl)c2)cc1N1CCOCC1 [Compound 109] with C. elegans Slo-1a (Caenorhabditis elegans, UniProt Q95V25) - EC50?
Return: < 10 µM

###

- system.tested: C. elegans Slo-1a (Caenorhabditis elegans, UniProt Q95V25)
- method.notes: Agonistic activity at C. elegans Slo-1a, FLIPR membrane potential in CHO K1 cells
- condition.details: EC50 agonistic activity at C. elegans Slo-1a, CHO K1 cells stably transfected with slo-1a, membrane potential dye
pEC50: −log10 of the molar value.
# pEC50 listing for each entry below

Examples from the recorded data:
CN(C)c1cc(Oc2cccc(Cl)c2Cl)ncc1C(=O)N[C@H]1CCCc2ccccc21; > 6.00
COc1cc(Sc2cccc(Cl)c2Cl)ncc1C(=O)N[C@H]1CCc2ccccc21; > 5.00
O=C(N[C@H]1CCCc2ccccc21)c1cnc(Sc2cc(Cl)cc(Cl)c2)cc1N1CCOCC1; > 6.00

Enquiry: Item `CSc1cc(Sc2cccc(Cl)c2Cl)ncc1C(=O)N[C@H]1CCOc2ccccc21` with C. elegans Slo-1a (Caenorhabditis elegans, UniProt Q95V25) - pEC50?
Return: > 5.00
